# TARGET: Phytoene desaturase (OsPDS-His6) (Oryza sativa, UniProt A2XDA1)
# Sequence (A2XDA1 88-578): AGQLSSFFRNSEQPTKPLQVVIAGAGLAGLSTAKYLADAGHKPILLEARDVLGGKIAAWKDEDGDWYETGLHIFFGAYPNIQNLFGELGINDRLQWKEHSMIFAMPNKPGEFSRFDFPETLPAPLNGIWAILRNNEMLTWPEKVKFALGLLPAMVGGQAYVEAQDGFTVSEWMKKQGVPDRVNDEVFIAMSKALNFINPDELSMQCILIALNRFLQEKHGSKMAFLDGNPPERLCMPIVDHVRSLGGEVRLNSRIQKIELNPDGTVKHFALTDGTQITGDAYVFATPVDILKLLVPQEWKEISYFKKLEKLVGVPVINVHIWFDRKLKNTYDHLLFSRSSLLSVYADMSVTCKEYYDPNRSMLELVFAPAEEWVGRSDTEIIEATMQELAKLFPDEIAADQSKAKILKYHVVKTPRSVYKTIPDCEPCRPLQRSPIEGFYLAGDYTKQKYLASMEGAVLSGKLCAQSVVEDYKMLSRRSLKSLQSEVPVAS
REPORTED ENDPOINT: Ki (µM)

> print(dat)
                                   compound  reported.endpoint  measure.unit  recorded.value
1  CNc1cnn(-c2cccc(C(F)(F)F)c2)c(=O)c1Cl [NFZ, norflurazon]                 Ki            µM             230

----------
# TARGET: Phytoene desaturase (OsPDS-His6) (Oryza sativa, UniProt A2XDA1, R300S)
# Sequence (A2XDA1 88-578 R300S): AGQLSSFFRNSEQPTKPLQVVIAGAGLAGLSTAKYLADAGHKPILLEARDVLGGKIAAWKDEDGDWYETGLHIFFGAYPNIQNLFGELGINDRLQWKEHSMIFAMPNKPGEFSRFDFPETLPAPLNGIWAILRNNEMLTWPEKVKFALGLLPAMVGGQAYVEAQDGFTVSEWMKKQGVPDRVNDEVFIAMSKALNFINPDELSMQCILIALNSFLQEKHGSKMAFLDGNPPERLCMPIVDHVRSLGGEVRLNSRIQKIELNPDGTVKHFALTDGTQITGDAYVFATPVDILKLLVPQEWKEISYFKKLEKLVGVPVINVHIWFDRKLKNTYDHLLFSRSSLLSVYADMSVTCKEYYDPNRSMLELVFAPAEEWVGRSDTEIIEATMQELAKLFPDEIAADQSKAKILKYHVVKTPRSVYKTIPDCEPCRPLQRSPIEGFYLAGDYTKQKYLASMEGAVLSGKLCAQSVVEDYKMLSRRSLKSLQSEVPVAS
# PROTOCOL NOTES: liposome-based desaturase assay with purified mutant, DPQ x NFZ matrix, competitive inhibition fit
REPORTED ENDPOINT: Ki (µM)

> print(dat)
                         chemical.string  reported.endpoint  recorded.value
1  CNc1cnn(-c2cccc(C(F)(F)F)c2)c(=O)c1Cl                 Ki            1110
